meta.source: paper PMC9482650

# tested.on: LAP2, Q96RT1
# Sequence (Q96RT1 other isoform, or with tags, fused parts or gaps): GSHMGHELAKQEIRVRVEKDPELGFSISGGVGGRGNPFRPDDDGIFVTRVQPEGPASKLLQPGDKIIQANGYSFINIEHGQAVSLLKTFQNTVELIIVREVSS
# assay.procedure: holdup assay
# Parameters: key: below the threshold = too weak to quantify, mostly under pKd 3.1 to 4
# conditions.used: plain residues with an end cap or a label only (N-terminal biotin on a linker: ahx)
value.kind: pKd

Worked cases, pKd given:
1. ESLLLGPSNF [SHROOM4, Q9ULL8] = below the threshold
2. GYDWGPATDL [TJP3, O95049] = 3.73
3. SDSSGQEYSL [KCTD3, Q9Y597] = below the threshold
4. RAVEEEESRF [PSCDBP, O60759] = below the threshold
5. TVICWPGSLV [LNX2, Q8N448] = 3.86

Record LSDPSVSTVV [GRIN1, Q05586;Q05586-2] . Reported pKd: below the threshold

Record HNAFLSVTTV [PDZRN4, Q6ZMN7] . Reported pKd: below the threshold

Record RRRKRKRTYL [HPV49-L2, P36762] . Reported pKd: below the threshold

Record PSASCAVTAA [PDLIM4, P50479;P50479-2] . Reported pKd: below the threshold

Record NRKREIFSNF [NHERF2, Q15599] . Reported pKd: below the threshold
